- Tested system: T1, CRBN, Q96SW2;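 note: pooled lentiviral library of zinc finger degron-EGFP fusions in mCherry-positive Jurkat cells, FACS-sorted after compound exposure, with degron abundance counted by next-generation sequencing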
- T1 chain: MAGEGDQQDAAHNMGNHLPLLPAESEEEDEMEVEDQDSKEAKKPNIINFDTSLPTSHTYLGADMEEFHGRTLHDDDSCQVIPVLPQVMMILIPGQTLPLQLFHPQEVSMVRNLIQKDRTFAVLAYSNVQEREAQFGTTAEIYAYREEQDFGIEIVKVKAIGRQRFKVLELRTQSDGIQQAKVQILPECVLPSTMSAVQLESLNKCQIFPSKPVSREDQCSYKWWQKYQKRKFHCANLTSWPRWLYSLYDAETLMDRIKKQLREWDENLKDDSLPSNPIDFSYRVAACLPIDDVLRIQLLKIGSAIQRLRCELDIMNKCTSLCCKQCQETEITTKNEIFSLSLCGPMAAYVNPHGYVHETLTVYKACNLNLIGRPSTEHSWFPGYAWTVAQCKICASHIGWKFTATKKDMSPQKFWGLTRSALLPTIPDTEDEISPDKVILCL
- Measurement description: log2 fold change of degron read counts, EGFP-low vs EGFP+ sorted cells (limma voom), compound-induced degradation; higher = more compound-induced degradation of the degron-EGFP fusion; degrons are variants of IKZF1/3 zinc finger 2; compound dose not given here
- Settings: Jurkat; 18 h; compound: compound 19 (5-tert-butyl-thalidomide)
The full ranking holds about 8,300 sequences; the median of “log2 fold change of degron read counts, EGFP-low vs EGFP+ sorted cells (limma voom), compound-induced degradation” is about -1.1, and the highest 2% start at about 3.2. The full list was thinned out, with the highest values kept by preference.
Mark 1 for reported log2 fold change of degron read counts of 0.2 or greater; mark -1 for anything smaller.

> print(dat)
                              residue.codes  answer.label
1  FACEICGHNFTQKGNLLRHIKL [46F_47A_49E_50I_52G_53H_54N_55F_67L_, Q9UKT9]            -1
2  LTCPICGFPCTQKGNLLRHIKL [46L_47T_49P_50I_52G_53F_54P_55C_67L_, Q9UKT9]            -1
3  FGCPVCGAQFTQKGNLLRHIKL [46F_47G_49P_50V_52G_53A_54Q_55F_67L_, Q9UKT9]             1
4  FKCEICGRDFTQKGNLLRHIKL [46F_47K_49E_50I_52G_53R_54D_55F_67L_, Q9UKT9]            -1
5  FFCPICGHDFTQKGNLLRHIKL [46F_47F_49P_50I_52G_53H_54D_55F_67L_, Q9UKT9]            -1
6  FDCPVCGAQFTQKGNLLRHIKL [46F_47D_49P_50V_52G_53A_54Q_55F_67L_, Q9UKT9]             1
7  FQCPVCGAQFTQKGNLLRHIKL [46F_47Q_49P_50V_52G_53A_54Q_55F_67L_, Q9UKT9]             1
